Tested on: anticorps monoclonal anti-PG E2 secrété par les hybridomes 8E57 (CNCM 1-254)
Experiment notes: competition radioimmunoassay (affinity by Scatchard plot, specificity by displacement of tritiated PG E2)
Assay type: binding, souris
Condition: competition with tritiated PG E2; 12 h at 4°C
Assay endpoint: quantité qu'il faut pour déplacer 2,5 pg de PG E2 tritiée de sa liaison à l'anticorps (pg)

1. CCCCC[C@H](O)/C=C/[C@H]1[C@H](O)CC(=O)[C@@H]1C/C=C\CCCC(=O)O [PG E2] :: 40
2. CCCCC[C@H](O)/C=C/[C@H]1[C@H](O)CC(=O)[C@@H]1CC(=O)CCCCC(=O)O [6-céto-PG E1] :: 350
3. CCCCC[C@H](O)/C=C/[C@H]1[C@H](O)CC(=O)[C@@H]1CCCCCCC(=O)O [PG E1] :: 70

====

quantité qu'il faut pour déplacer 2,5 pg de PG E2 tritiée liée à l'anticorps for assorted compounds
Tested on: anticorps monoclonal anti-PG E2 secrété par les hybridomes 42-61-48 (CNCM 1-255), type IgG Cb Kapa
Experiment notes: competition radioimmunoassay (affinity by Scatchard plot, specificity by displacement of tritiated PG E2)
Format: binding, souris
Condition: competition with tritiated PG E2; 12 h at 4°C
Assay endpoint: quantité qu'il faut pour déplacer 2,5 pg de PG E2 tritiée liée à l'anticorps (pg)

1. CCCCC[C@H](O)/C=C/[C@H]1[C@H](O)CC(=O)[C@@H]1C/C=C\CCCC(=O)O [PG E2] :: 80
2. CCCCC[C@H](O)/C=C/[C@H]1[C@H](O)CC(=O)[C@@H]1CC(=O)CCCCC(=O)O [6-céto-PG E1] :: 1000
3. CCCCC[C@H](O)/C=C/[C@H]1[C@H](O)CC(=O)[C@@H]1CCCCCCC(=O)O [PG E1] :: 350

====

System: anticorps monoclonal anti-PG E2 secrété par les hybridomes 42-61-48 (CNCM 1-255), type IgG Cb Kapa
Experiment notes: competition radioimmunoassay (affinity by Scatchard plot, specificity by displacement of tritiated PG E2)
Type: binding, souris
Condition: competition with tritiated PG E2; 12 h at 4°C
quantité qu'il faut pour déplacer 2,5 pg de PG E2 tritiée liée à l'anticorps for assorted compounds
Assay endpoint: quantité qu'il faut pour déplacer 2,5 pg de PG E2 tritiée liée à l'anticorps

1. CCCCC[C@H](O)/C=C/C1=C(C/C=C\CCCC(=O)O)C(=O)CC1 :: 500 000 pg
2. CCCCC[C@H](O)/C=C/[C@H]1C=CC(=O)[C@@H]1C/C=C\CCCC(=O)O :: 50 000 pg
3. CCCCC[C@H](O)/C=C/[C@@H]1[C@@H](CCCCCCC(=O)O)[C@@H](O)C[C@H]1O :: 40 000 pg
